System: T1, Full length recombinant HBcAg (rHBcAg) encompassing residues 1-183 (hepatitis B virus, UniProt P03146 1-183)
T1 construct: range 1-183; also called hepatitis B virus core antigen
T1 sequence (P03146 whole entry, the tested form may be a part): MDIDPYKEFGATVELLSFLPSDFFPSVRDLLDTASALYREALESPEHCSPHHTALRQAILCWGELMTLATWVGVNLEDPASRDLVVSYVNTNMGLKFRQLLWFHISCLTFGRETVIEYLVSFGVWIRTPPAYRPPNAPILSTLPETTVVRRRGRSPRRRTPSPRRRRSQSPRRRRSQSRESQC
Method Notes: EIA, peptide coated 100 ug/ml, HBcAg 10 ug/ml
Measurement Label: OD
Reply with the number, then its unit.

Known OD results, listed for orientation:
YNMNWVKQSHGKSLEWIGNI (also called Peptide # 27) [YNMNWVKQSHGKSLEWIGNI (SEQ. ID. No. 30)]: 0.151 OD
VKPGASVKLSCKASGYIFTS (also called Peptide # 2; Pept. #2) [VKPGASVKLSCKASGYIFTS (SEQ. ID. No. 5)]: 1.45 OD
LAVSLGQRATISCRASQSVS [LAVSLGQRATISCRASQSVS (SEQ. ID. No. 16)]: 0.9 OD

*Q* Give the reported value of OD for this record: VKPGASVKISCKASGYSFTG (also called Peptide # 25) [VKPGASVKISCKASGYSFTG (SEQ. ID. No. 28)]
*A* 1.01 OD

*Q* Give the reported value of OD for this record: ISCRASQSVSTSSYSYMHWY [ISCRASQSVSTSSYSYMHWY (SEQ. ID. No. 17)]
*A* 0.641 OD

*Q* Give the reported value of OD for this record: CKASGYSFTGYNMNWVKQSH (also called Peptide # 26) [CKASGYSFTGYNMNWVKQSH (SEQ. ID. No. 29)]
*A* 0.422 OD
